Recorded values, source patent EP1144412B1.

- Tested on: Peripheral blood mononuclear cells (PBMC)
- assay summary: Mixed lymphocyte reaction (MLR), [3H]-thymidine incorporation
- Assay type: cell-based
- measurement conditions: Homo sapiens, untitled structure table, no unit printed there, same values in Table II as IC50 in µM, read-out: MLR
parameter: log10 of IC50 (log10 of the value in µM)
Friendly reminder: values = log10 of IC50, unit µM.

(Q) Consider the compound shown here: Nc1nc(NO)c2nc(-c3ccccc3)cnc2n1 What is its recorded log10 of IC50?
(A) 2.15

(Q) Would you mind doing CCCN(CCC)c1nc(N)nc2ncc(-c3ccc(OC)c(OC)c3)nc12 as well?
(A) 0.34

(Q) Next: COc1ccc(-c2cnc3nc(N)nc(N(Cc4ccccc4)Cc4ccccc4)c3n2)cc1OC
(A) 0.54

(Q) // query: COc1ccc(-c2cnc3nc(N)nc(N4CCOCC4)c3n2)cc1OC
(A) -1.00

(Q) And what about the compound Nc1nc(N2CCCCC2)c2nc(-c3ccc(Cl)cc3)cnc2n1 ?
(A) 1.18

(Q) Also Nc1nc(N)c2nc(CNCc3ccccc3)cnc2n1 ?
(A) 1.70

(Q) Repeat for the following compound: CCN(CC)c1nc(N)nc2ncc(-c3ccc(OC)cc3)nc12
(A) 1.08

----------
- Test system: Peripheral blood mononuclear cells (PBMC)
- assay summary: Mixed lymphocyte reaction (MLR), [3H]-thymidine incorporation
- Format: cell-based
- measurement conditions: Homo sapiens, Table II, read-out: IC50 in µM of pteridine derivative MLR
Consider the following compounds; for each one, report its IC50.
Give the number; µM is assumed, so skip it.

(Q) I would be grateful if you could share the reported IC50 for CCN(CC)c1nc(N)nc2ncc(-c3ccc(OC)cc3)nc12 .
(A) 12

(Q) Cool, now CCN(CC)c1nc(N)nc2ncc(-c3ccc(OC)c(OC)c3)nc12
(A) 0.08

(Q) What would you report for COc1ccc(-c2cnc3nc(N)nc(N(Cc4ccccc4)Cc4ccccc4)c3n2)cc1OC ?
(A) 3.5

(Q) Same read-out for Nc1nc(N(Cc2ccccc2)Cc2ccccc2)c2nc(-c3ccc(Cl)cc3)cnc2n1 ?
(A) 100

(Q) Lookup CCCN(CCC)c1nc(N)nc2ncc(-c3ccc(OC)cc3)nc12
(A) 8.5

(Q) Can you check COc1ccc(-c2cnc3nc(N)nc(N4CCN(C)CC4)c3n2)cc1 next?
(A) 12.3

(Q) Continue with Nc1nc(NO)c2nc(-c3ccccc3)cnc2n1
(A) 140

(Q) // query: CCN(CC)c1nc(N)nc2ncc(-c3ccccc3)nc12
(A) 15

(Q) Follow-up item: CCCN(CCC)c1nc(N)nc2ncc(-c3ccc(OC)c(OC)c3)nc12
(A) 2.2

(Q) Nc1nc(N2CCCCC2)c2nc(-c3ccc(Cl)cc3)cnc2n1 , same question.
(A) 15

(Q) Lookup Nc1nc(N2CCNCC2)c2nc(-c3ccccc3)cnc2n1
(A) 12

(Q) Thanks! And COc1ccc(-c2cnc3nc(N)nc(N4CCNCC4)c3n2)cc1 ?
(A) 10.5

(Q) Next: CN1CCN(c2nc(N)nc3ncc(-c4ccc(Cl)cc4)nc23)CC1
(A) 4.8

(Q) Here is the next compound: COc1ccc(-c2cnc3nc(N)nc(N4CCOCC4)c3n2)cc1OC
(A) 0.1

(Q) Queued: Nc1nc(N2CCOCC2)c2nc(-c3ccccc3)cnc2n1
(A) 15

(Q) Now give it for CCCCCOc1nc(N)nc2ncc(C(Br)C(Br)c3ccccc3)nc12 (centres unmarked) too.
(A) 12

(Q) Moving on to the next compound: CCCCCOc1nc(N)nc2ncc(C=Cc3ccccc3)nc12
(A) 15

(Q) Then COc1ccc(-c2cnc3nc(N)nc(N4CCNCC4)c3n2)cc1OC ?
(A) 2.8

(Q) Moving on to Nc1nc(N(Cc2ccccc2)Cc2ccccc2)c2nc(-c3ccccc3)cnc2n1
(A) 75

(Q) Subsequent entry: CCN(CC)c1nc(N)nc2ncc(-c3ccc(Cl)cc3)nc12
(A) 17

(Q) Next record, please: CN(C)c1nc(N)nc2ncc(-c3ccccc3)nc12
(A) 5

(Q) Now consider COc1ccc(-c2cnc3nc(N)nc(N4CCN(C)CC4)c3n2)cc1OC and answer again.
(A) 2

(Q) Same again, this time with COc1ccc(-c2cnc3nc(N)nc(N)c3n2)cc1
(A) 150

(Q) Follow-up item: COc1ccc(-c2cnc3nc(N)nc(N(Cc4ccccc4)Cc4ccccc4)c3n2)cc1
(A) 50

(Q) Quick one: Nc1nc(NCCO)nc2ncc(-c3ccccc3)nc12
(A) 125

(Q) Request: Cc1ccc(-c2cnc3nc(N)nc(N(C)C)c3n2)cc1
(A) 3.6

(Q) Here is the next compound: CN1CCN(c2nc(N)nc3ncc(-c4ccccc4)nc23)CC1
(A) 15

(Q) What do you have for Nc1nc(N)c2nc(CNCc3ccccc3)cnc2n1 ?
(A) 50

(Q) Repeat with Nc1nc(N)c2nc(-c3ccc(Cl)cc3)cnc2n1
(A) 125

(Q) What about Nc1nc(N2CCOCC2)c2nc(-c3ccc(Cl)cc3)cnc2n1 ?
(A) 12

(Q) // query: Nc1nc(N2CCNCC2)c2nc(-c3ccc(Cl)cc3)cnc2n1
(A) 2

----------
Could you please report measured IC50 for the items listed next?
- System: Peripheral blood mononuclear cells (PBMC)
- assay summary: Mixed lymphocyte reaction (MLR), [3H]-thymidine incorporation
- Format: cell-based
- measurement conditions: Homo sapiens, Table II, read-out: IC50 in µM of pteridine derivative MLR
Answer in µM, number only, no unit symbol.

(Q) For the compound shown here, COc1nc2nc(N)nc(OC)c2nc1C=Cc1ccccc1 , give the reported IC50.
(A) 25

(Q) Try this compound too: Nc1nc(N2CCCCC2)c2nc(-c3ccccc3)cnc2n1
(A) 15

(Q) Could you do the same for COc1ccc(-c2cnc3nc(N)nc(N(C)C)c3n2)cc1 , please?
(A) 12

(Q) Same for CCCN(CCC)c1nc(N)nc2ncc(-c3ccc(Cl)cc3)nc12
(A) 13

(Q) Another compound to check: CCCN(CCC)c1nc(N)nc2ncc(-c3ccccc3)nc12
(A) 15

----------
- System: Peripheral blood mononuclear cells (PBMC)
- assay summary: Mixed lymphocyte reaction (MLR), [3H]-thymidine incorporation
- Assay type: cell-based
- measurement conditions: Homo sapiens, untitled structure table, no unit printed there, same values in Table II as IC50 in µM, read-out: MLR
- Protocol: Various models may be used for testing an immunosuppressive effect. In vivo, for example, different transplantation models are available. […] Usually activation is measured via lymphocyte proliferation. […] Peripheral blood mononuclear cells (PBMC) were isolated from heparinized peripheral blood by density gradient centrifugation over Lymphoprep (Nycomed, Maorstua, Norway). […] After a further 16 hours incubation, cells were harvested and counted in a β-counter. […]
parameter: IC50 (µM)
Reply numerically in µM, unit not repeated.

(Q) # IC50 lookup, item CN(C)c1nc(N)nc2ncc(-c3ccccc3)nc12
(A) 5

(Q) Would you kindly repeat that for CCN(CC)c1nc(N)nc2ncc(-c3ccccc3)nc12 ?
(A) 15

(Q) Do the same for COc1ccc(-c2cnc3nc(N)nc(N4CCNCC4)c3n2)cc1 please
(A) 10.5

(Q) Another molecule: CCN(CC)c1nc(N)nc2ncc(-c3ccc(Cl)cc3)nc12
(A) 17

(Q) Next entry: CCCCCOc1nc(N)nc2ncc(C(Br)C(Br)c3ccccc3)nc12 (centres unmarked)
(A) 12

(Q) Please do the same for Nc1nc(N)c2nc(-c3ccc(Cl)cc3)cnc2n1 as well.
(A) 125

----------
- Test system: Highly purified T cells
- assay summary: T cell proliferation induced by anti-CD3 mAb + PMA (BrdU incorporation)
- Assay type: cell-based, Human
- measurement conditions: Homo sapiens, T-cell; untitled structure table; no unit printed there, same values in Table II as IC50 in µM; read-out: aCD3
parameter: IC50 (µM)
Your answer should be a plain number; it is taken to be in µM.

(Q) So what does the record say about IC50 for COc1nc(N)nc2ncc(C(O)C(C)O)nc12 (stereo not shown) ?
(A) 140

(Q) Same lookup for Nc1nc(N2CCNCC2)c2nc(-c3ccccc3)cnc2n1 , please.
(A) 11.7

(Q) Same thing, different compound: COc1ccc(-c2cnc3nc(N)nc(N)c3n2)cc1
(A) 125

(Q) Same read-out for CN(C)Cc1cnc2nc(N)nc(N)c2n1 ?
(A) 170

----------
- Test system: Peripheral blood mononuclear cells (PBMC)
- assay summary: Mixed lymphocyte reaction (MLR), [3H]-thymidine incorporation
- Assay type: cell-based
- measurement conditions: Homo sapiens, untitled structure table, no unit printed there, same values in Table II as IC50 in µM, read-out: MLR
Give measured IC50 for each item. Keep answers brief.

(Q) // query IC50 value for entry Cc1nc2nc(N)nc(N)c2nc1-c1ccccc1
(A) > 200 µM

(Q) Then Nc1nc(N(Cc2ccccc2)Cc2ccccc2)c2nc(-c3ccccc3)cnc2n1 ?
(A) 75 µM

(Q) Try this compound next: CCCN(CCC)c1nc(N)nc2ncc(-c3ccc(OC)cc3)nc12
(A) 8.5 µM

(Q) Then this compound: COc1ccc(-c2cnc3nc(NCCO)nc(N)c3n2)cc1
(A) > 200 µM

(Q) Next record, please: Cc1ccc(-c2cnc3nc(N)nc(N)c3n2)cc1
(A) > 200 µM

(Q) Moving on to the next compound: COCCOCc1cnc2nc(N)nc(N)c2n1
(A) > 200 µM

(Q) Try the compound Nc1nc(NCCO)nc2ncc(-c3ccccc3)nc12
(A) 125 µM

(Q) What about COc1ccc(-c2cnc3nc(N)nc(N4CCNCC4)c3n2)cc1OC ?
(A) 2.8 µM
